pIC50: −log10 of the molar value.
In what follows, each item is paired with its pIC50 for UniProt:P00533.
Sequence (P00533 whole entry, looked up): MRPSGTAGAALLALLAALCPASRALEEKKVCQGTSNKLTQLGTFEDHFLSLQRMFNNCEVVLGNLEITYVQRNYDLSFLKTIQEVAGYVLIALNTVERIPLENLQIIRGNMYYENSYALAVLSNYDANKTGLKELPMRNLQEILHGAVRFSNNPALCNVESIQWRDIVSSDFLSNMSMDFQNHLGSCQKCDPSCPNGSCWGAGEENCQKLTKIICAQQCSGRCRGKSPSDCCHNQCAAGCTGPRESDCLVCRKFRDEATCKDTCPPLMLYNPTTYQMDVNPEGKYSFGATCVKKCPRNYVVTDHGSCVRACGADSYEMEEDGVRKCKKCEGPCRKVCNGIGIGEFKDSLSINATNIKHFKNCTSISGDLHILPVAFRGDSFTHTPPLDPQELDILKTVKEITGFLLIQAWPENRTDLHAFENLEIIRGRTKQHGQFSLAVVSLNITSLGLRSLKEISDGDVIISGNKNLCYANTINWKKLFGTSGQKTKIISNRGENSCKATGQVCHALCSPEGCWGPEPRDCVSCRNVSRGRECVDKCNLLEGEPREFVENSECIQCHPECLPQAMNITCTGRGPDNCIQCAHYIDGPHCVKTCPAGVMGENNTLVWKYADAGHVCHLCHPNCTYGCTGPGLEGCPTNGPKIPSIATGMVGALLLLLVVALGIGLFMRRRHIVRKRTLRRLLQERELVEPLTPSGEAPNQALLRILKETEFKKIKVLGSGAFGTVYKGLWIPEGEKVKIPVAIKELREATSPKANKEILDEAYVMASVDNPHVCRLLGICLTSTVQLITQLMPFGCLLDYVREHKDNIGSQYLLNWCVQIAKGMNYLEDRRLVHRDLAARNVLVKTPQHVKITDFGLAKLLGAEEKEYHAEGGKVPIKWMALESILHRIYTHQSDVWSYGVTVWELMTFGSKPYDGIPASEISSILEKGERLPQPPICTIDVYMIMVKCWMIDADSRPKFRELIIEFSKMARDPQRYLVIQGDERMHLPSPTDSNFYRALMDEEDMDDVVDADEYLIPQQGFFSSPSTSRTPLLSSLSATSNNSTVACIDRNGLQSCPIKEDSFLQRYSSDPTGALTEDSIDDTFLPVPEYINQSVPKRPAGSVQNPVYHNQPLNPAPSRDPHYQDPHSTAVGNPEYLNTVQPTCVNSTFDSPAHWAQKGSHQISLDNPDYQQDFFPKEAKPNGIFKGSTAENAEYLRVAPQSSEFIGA
metric-name: pIC50

Report pIC50 under test system UniProt:P00533 for c1ccc(CCNc2ncnc3ccccc23)cc1 . 5.39

(1) COc1cc2ncnc(NC3CCc4ccccc43)c2cc1OC (stereo unspecified)
(2) COc1ccc2c(N[C@H](C)c3ccccc3)ncnc2c1
(3) COc1ccc2c(NCc3ccccc3)ncnc2c1
(4) c1ccc(CNc2ncnc3ccccc23)cc1
Order the 4 compounds from highest to lowest pIC50. In your reply, arrange the labels in the requested order. 2, 3, 4, 1
